Target: Mu-type opioid receptor (Cavia porcellus)
Sequence (P97266 whole entry): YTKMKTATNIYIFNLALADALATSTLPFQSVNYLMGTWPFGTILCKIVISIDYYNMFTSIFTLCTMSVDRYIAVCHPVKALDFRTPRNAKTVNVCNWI
Assay endpoint: Ki (nM)
Answer format: numeric, nM implied, no suffix.

Compound	Ki (nM)
O=C(Cc1ccc(Cl)c(Cl)c1)N1CCOC2CN(Cc3cccnc3)CC(N3CCCC3)C21 (racemic)	633

From here, focus on the item given below.
**Q:** What does the data say about its Ki? Entry: CCCCN1CC2OCCN(C(=O)Cc3ccc(Cl)c(Cl)c3)C2C(N2CCCC2)C1 (racemic)
**A:** 502

###

Measured Ki values are reported for all entries that follow.
Target: Delta-type opioid receptor (Rattus norvegicus)
Sequence (P33533 whole entry): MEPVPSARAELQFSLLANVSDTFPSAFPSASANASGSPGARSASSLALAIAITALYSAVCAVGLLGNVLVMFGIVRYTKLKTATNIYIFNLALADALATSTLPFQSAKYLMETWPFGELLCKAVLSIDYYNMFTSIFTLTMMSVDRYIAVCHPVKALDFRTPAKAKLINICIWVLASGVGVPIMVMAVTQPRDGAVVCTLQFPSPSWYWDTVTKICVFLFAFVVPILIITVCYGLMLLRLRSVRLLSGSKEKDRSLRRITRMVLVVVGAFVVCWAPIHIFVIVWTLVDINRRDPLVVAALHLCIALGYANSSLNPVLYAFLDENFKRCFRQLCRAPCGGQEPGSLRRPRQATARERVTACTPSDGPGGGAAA
Assay: Displacement of [3H]DPDPE from delta opioid receptor in Sprague-Dawley rat brain membranes after 120 mins by scintillation counting analysis

These solved cases illustrate the format of a correct answer.
Molecule	Assay endpoint	Obs value
O=C(Cc1ccc(Cl)c(Cl)c1)N1CCOC2CN(Cc3ccccc3)CC(N3CCCC3)C21 (racemic)	Ki	260 nM
O=C1COC2CN(C(=O)Cc3ccc(Cl)c(Cl)c3)CC(N3CCCC3)C2N1 (racemic)	Ki	> 1000 nM

**Q:** Form field - read-out: Ki; system: Delta-type opioid receptor (Rattus norvegicus); submitted item: CCCCN1CC2OCCN(C(=O)Cc3ccc(Cl)c(Cl)c3)C2C(N2CCCC2)C1 (racemic)
**A:** > 1000 nM

###

Biological target: Delta-type opioid receptor (Rattus norvegicus)
Assay: Displacement of [3H]DPDPE from delta opioid receptor in Sprague-Dawley rat brain membranes after 120 mins by scintillation counting analysis
Assay endpoint: Ki

Molecule	Ki
CN1CC2OCCN(C(=O)Cc3ccc(Cl)c(Cl)c3)C2C(N2CCCC2)C1 (racemic)	> 1000 nM
CCN1CC2OCCN(C(=O)Cc3ccc(Cl)c(Cl)c3)C2C(N2CCCC2)C1 (racemic)	> 1000 nM

**Q:** What does the data say about its Ki? Entry: O=C(Cc1ccc(Cl)c(Cl)c1)N1CCOC2CNCC(N3CCCC3)C21 (racemic)
**A:** > 1000 nM

###

Molecular target: Mu-type opioid receptor (Cavia porcellus)
Assay: Displacement of [3H]DAMGO from mu opioid receptor in guinea pig brain membranes after 120 mins by scintillation counting analysis
Type: cell membranes, Membrane
pKi: −log10 of the molar value.
Assay endpoint: pKi

Compound	pKi
O=C(Cc1ccc(Cl)c(Cl)c1)N1CCOC2CNCC(N3CCCC3)C21 (racemic)	< 6.00

**Q:** What does the data say about its pKi? Entry: CCN1CC2OCCN(C(=O)Cc3ccc(Cl)c(Cl)c3)C2C(N2CCCC2)C1 (racemic)
**A:** < 6.00

**Q:** Field entry: CN1CC2OCCN(C(=O)Cc3ccc(Cl)c(Cl)c3)C2C(N2CCCC2)C1 (racemic)
**A:** < 6.00
